System: HT-29
runDescription: NCI tumour cell line growth inhibition, 48 h
Calls of active or inactive are those of the source. Rule as the data show it: active = GI50 up to about 1.1 µM and inactive = higher.
Possible outcomes: active, inactive

{"compound": "O=[N+]([O-])c1ccc(Sc2c3ccccc3nc3ccccc23)cn1", "category": "inactive"}
{"compound": "COc1ccc(C2=C(N)c3c(Cl)cccc3C2=O)cc1", "category": "inactive"}
{"compound": "CCOC(CN(C)C(=O)Nc1ccc(Cl)c(Cl)c1)OCC", "category": "inactive"}
{"compound": "CN(C)Cc1ccc(C(C)(C)C)cc1-c1cc(C(C)(C)C)ccc1CN(C)C", "category": "inactive"}
{"compound": "CC(CN1CCN(CC(C)Nc2ccnc3cc(Cl)ccc23)CC1)Nc1ccnc2cc(Cl)ccc12 (configuration not stated)", "category": "inactive"}
{"compound": "Nc1ncnc2c1nc(Cl)n2[C@@H]1O[C@@H]2COP(=O)(O)O[C@H]2[C@H]1O", "category": "inactive"}
{"compound": "CC(=O)NNc1nc(C)c(C(/C=C/c2ccc(Cl)cc2)=N\\NS(=O)(=O)c2ccc(C)cc2)s1", "category": "inactive"}
{"compound": "N#C[C-](C#N)[n+]1ccc(Cl)cc1", "category": "inactive"}
{"compound": "Clc1ccc(OCc2nnc3sc(-c4ccc(-c5ccc(Cl)cc5Cl)o4)nn23)c(Cl)c1", "category": "inactive"}
{"compound": "C/C(=N\\NC(N)=S)C(CN(CC(C)C)CC(C)C)C(=O)Nc1ccc(C)cc1C (configuration not stated)", "category": "inactive"}
{"compound": "C/C=C(\\C)C(=O)OC1C2C(C)=CC(=O)C(O)C2(C)C2C3(O)OCC24C1OC(=O)C(OC(C)=O)C4C(C)C3O (configuration not stated)", "category": "active"}
{"compound": "O=C1CC2(CCC(O)(c3cccc4ccccc34)C(C(=O)c3cccc4ccccc34)C2)C(=O)c2ccccc2N1 (configuration not stated)", "category": "inactive"}
{"compound": "C=C[C@@](C)(/C=C/c1ccc(O)cc1)CCC=C(C)C", "category": "inactive"}
{"compound": "Cc1c2cc[n+](C)cc2c(C)c2c1[nH]c1ccc(OC(C)(C)C)cc12", "category": "inactive"}
{"compound": "N#Cc1nnn(-c2ccc(Br)cc2)c1O", "category": "inactive"}
{"compound": "O=C(CCOS(=O)(=O)CF)N1CCN(C(=O)CCOS(=O)(=O)CF)CC1", "category": "inactive"}
{"compound": "Cc1ccc(-c2cc(-c3ccc(Cl)cc3)nc(/N=C3\\C(=O)N(CN4CCOCC4)c4ccccc43)n2)cc1", "category": "inactive"}

====

Tested on: MCF7
runDescription: NCI tumour cell line growth inhibition, 48 h
Calls of active or inactive are those of the source. No stated cut-off is given here; in the data, active = GI50 up to about 1.1 µM and inactive = higher.
measurementLabel: GI50

{"molecule": "CSC1(SC2=NCCN2)SC2(NCCN2)S1", "measurementLabel": "GI50", "recordedMeasurement": "3.18 µM (inactive)"}
{"molecule": "Oc1c(N2CCOCC2)cc(-c2cc(N3CCOCC3)c(O)c3ccccc23)c2ccccc12", "measurementLabel": "GI50", "recordedMeasurement": "2.12 µM (inactive)"}
{"molecule": "CCc1nc2c(c(N(C)C)c1C(=O)OC)CCc1ccccc1-2", "measurementLabel": "GI50", "recordedMeasurement": "14.4 µM (inactive)"}
{"molecule": "COc1c(CCl)cc(-c2cc(=O)c3ccccc3s2)cc1CCl", "measurementLabel": "GI50", "recordedMeasurement": "1.91 µM (inactive)"}
{"molecule": "O=S(=O)(O)c1ccc2cc(/N=N\\c3cc(S(=O)(=O)O)c4cccnc4c3O)ccc2c1", "measurementLabel": "GI50", "recordedMeasurement": "> 100 µM (inactive)"}
{"molecule": "CC(NNC(=O)c1cc[n+]([BH2-]C#N)cc1)c1ccc(Cl)cc1Cl (stereo unspecified)", "measurementLabel": "GI50", "recordedMeasurement": "36 µM (inactive)"}
